Source listed as patent US20250152729A1.

tgt: T1, human SEMA4A expressed on cells (UniProt ID Q9H3S1, isoform 1) (human, UniProt Q9H3S1 33-761)
T1 sequence: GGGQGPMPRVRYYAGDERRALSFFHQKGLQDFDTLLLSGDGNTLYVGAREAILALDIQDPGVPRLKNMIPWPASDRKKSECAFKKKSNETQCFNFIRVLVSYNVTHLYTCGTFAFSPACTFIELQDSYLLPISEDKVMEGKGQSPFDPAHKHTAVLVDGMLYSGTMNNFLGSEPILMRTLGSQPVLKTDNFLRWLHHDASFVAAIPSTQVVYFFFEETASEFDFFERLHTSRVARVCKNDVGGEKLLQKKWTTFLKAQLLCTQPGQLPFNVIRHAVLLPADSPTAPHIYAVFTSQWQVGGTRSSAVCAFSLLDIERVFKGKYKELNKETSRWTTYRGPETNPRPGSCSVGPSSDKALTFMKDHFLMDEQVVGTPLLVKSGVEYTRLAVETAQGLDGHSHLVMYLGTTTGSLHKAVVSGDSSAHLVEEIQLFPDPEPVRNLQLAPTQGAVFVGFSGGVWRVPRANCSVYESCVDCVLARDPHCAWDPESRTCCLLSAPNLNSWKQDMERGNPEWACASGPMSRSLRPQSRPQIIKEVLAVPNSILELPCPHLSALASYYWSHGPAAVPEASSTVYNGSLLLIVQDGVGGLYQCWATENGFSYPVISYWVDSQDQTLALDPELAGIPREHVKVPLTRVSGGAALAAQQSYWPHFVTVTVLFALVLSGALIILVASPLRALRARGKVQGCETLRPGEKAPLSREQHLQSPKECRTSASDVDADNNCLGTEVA
assay.protocol: cell-based or functional assay
Property: EC50 (nM), Fab-pHast internalisation into NCI-H929; scope: individual binders
Reply numerically in nM, unit not repeated.

Answer with reported EC50 (nM), Fab-pHast internalisation into NCI-H929 of 5Hg2-5Lg2 human Alya IgG1 conjugated to McMMAF (antibody, V domains shown, McMMAF on the engineered cysteines 239iCys and S442C (EU numbering) of the heavy constant region, Antibody-drug conjugate; human IgG1 Alya constant; also called 5Hg2/5Lg2-McMMAF) VH: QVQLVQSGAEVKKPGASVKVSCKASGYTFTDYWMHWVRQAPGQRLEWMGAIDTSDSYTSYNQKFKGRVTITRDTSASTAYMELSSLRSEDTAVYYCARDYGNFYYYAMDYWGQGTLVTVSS VL: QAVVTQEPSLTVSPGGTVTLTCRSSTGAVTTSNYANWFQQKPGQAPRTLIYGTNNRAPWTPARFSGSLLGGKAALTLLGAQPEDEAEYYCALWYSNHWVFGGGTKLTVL 0.59

Answer with reported EC50 (nM), Fab-pHast internalisation into NCI-H929 of C0120903 human Alya IgG1 conjugated to McMMAF (antibody, V domains shown, McMMAF on the engineered cysteines 239iCys and S442C (EU numbering) of the heavy constant region, Antibody-drug conjugate; human IgG1 Alya constant; also called C0120903-McMMAF) VH: EVQLVQSGAEVKKPGSSMKVSCKASGGTFNSYTINWVRQAPGQGLEWVGGFIPIFGTADYAQKFHGRVAITADESMSTAYMELSSLRSEDTAVYYCARAPLGSEPFDYWGQGTMVTVSS VL: SYVLTQPPSVSVAPGQTARITCGGNNIGSKSVHWYQQKPGQAPVLVVYDDSDRPSGIPERFSGSNSGNTATLTISRVEAGDEADYYCQVWDSSSDHLVFGGGTKLTVL 0.98

Answer with reported EC50 (nM), Fab-pHast internalisation into NCI-H929 of C0120906 human Alya IgG1 conjugated to McMMAF (antibody, V domains shown, McMMAF on the engineered cysteines 239iCys and S442C (EU numbering) of the heavy constant region, Antibody-drug conjugate; human IgG1 Alya constant; also called C0120906-McMMAF) VH: EVQLVQSGPEVKKPGASVKISCKASGYKLNDPGVHGVSWVRQAPGQGLEWMGWISTLNGDTRYAQKFQGRVTMATDSSTSTIYMDLRSLKSDDTALYYCARDDYTAIFDFWGRGTLVTVSS VL: QSVLTQPPSVSVAPGQTASITCGGSNIGSQSVHWYQQKPGQAPVLVVYDDSDRPSGIPERFSGSKSGNTASLILSRVEAGDEADYYCQVWDSSTDHHVFGTGTKVTVL 4.1
